Data origin, for the record: ChEMBL document CHEMBL2021798

Assay: Dissociation constant, pKa of the compound
Type: physicochemical
Recorded pKa values for a group of compounds are listed next.
Enter the number alone.

smi=CCOc1cc2nccc(Oc3cnc(CC(=O)Nc4n[nH]c(CC)c4C)c(OC)c3)c2cc1OC readout=pKa measuredresult=6

// next item, pKa requested
Form: compound = "COc1ccc2c(Oc3ccc(CC(=O)Nc4cn(C)nc4C)c(OC)c3)ccnc2c1.O=S(=O)(O)O" ; pKa = 6.3

---

Assay: Terminal half life in dog at 20 mg/kg, iv
Assay type: ADME, organism-based, Canis lupus familiaris
Set-up: dose 20 mg/kg, route intravenous
Settings: in vivo, read-out: beta t1/2 (converted)
A collection of molecules and their measured half-life
Field: numeric (min). Do not append units.

smi=COc1ccc2c(Oc3ccc(CC(=O)Nc4cn(C)nc4C)c(OC)c3)ccnc2c1.O=S(=O)(O)O measuredresult=636

Below: the item to evaluate.
For this molecule ( "COc1ccc2c(Oc3ccc(CC(=O)Nc4cn(C)nc4C)c(OC)c3)ccnc2c1" ), measured half-life is 516

---

Assay: Lipophilicity, log D of the compound
Format: physicochemical
Conditions: octanol/water
readout: logD
API note: the answer field is a bare number with no unit suffix.

smi=COc1ccc2c(Oc3ccc(CC(=O)Nc4cn(C)nc4C)c(OC)c3)ccnc2c1.O=S(=O)(O)O measuredresult=3.5

The molecule listed as "CCOc1cc2nccc(Oc3cnc(CC(=O)Nc4n[nH]c(CC)c4C)c(OC)c3)c2cc1OC" has a reported logD of 3.3

---

Experiment: Oral bioavailability in rat at 20 mg/kg
Format: ADME, organism-based
Settings: in vivo
readout: bioavailability

Reported bioavailability ( "COc1ccc2c(Oc3ccc(CC(=O)Nc4cn(C)nc4C)c(OC)c3)ccnc2c1.O=S(=O)(O)O" ) = 78%

---

Assay: Clearance in dog at 3 mg/kg, po
Assay type: ADME, organism-based, Canis lupus familiaris
Set-up: dose 3 mg/kg, route oral
Conditions: in vivo
readout: CL/F (mL/min/kg)
Kindly answer with a numeric value in mL/min/kg, unit omitted.

Item: "CCOc1cc2nccc(Oc3cnc(CC(=O)Nc4n[nH]c(CC)c4C)c(OC)c3)c2cc1OC" | CL/F: 11.5

---

Assay: Terminal half life in dog at 3 mg/kg, iv
Type: ADME, organism-based, Canis lupus familiaris
Set-up: dose 3 mg/kg, route intravenous
Conditions: in vivo, read-out: beta t1/2 (converted)
readout: half-life (h)
Return type: number; implicit unit h.

Lab note: "CCOc1cc2nccc(Oc3cnc(CC(=O)Nc4n[nH]c(CC)c4C)c(OC)c3)c2cc1OC" gave half-life of 3.4

---

Assay: Clearance in rat at 20 mg/kg, po
Type: ADME, organism-based
Parameters: dose 20 mg/kg, route oral
Conditions: in vivo
readout: CL/F

CL/F in this record for "COc1ccc2c(Oc3ccc(CC(=O)Nc4cn(C)nc4C)c(OC)c3)ccnc2c1.O=S(=O)(O)O" : 5.7 mL/min/kg

---

Test: Oral bioavailability in dog at 20 mg/kg
Assay type: ADME, organism-based, Canis lupus familiaris
Conditions: in vivo
readout: bioavailability (%)
Provide the reading as a plain figure in %.

Form field bioavailability, entry "COc1ccc2c(Oc3ccc(CC(=O)Nc4cn(C)nc4C)c(OC)c3)ccnc2c1.O=S(=O)(O)O" : 59

---

Assay: Terminal half life in rat at 3 mg/kg, iv
Format: ADME, organism-based
Parameters: dose 3 mg/kg, route intravenous
Conditions: in vivo, read-out: beta t1/2 (converted)
readout: half-life

half-life reading for "CCOc1cc2nccc(Oc3cnc(CC(=O)Nc4n[nH]c(CC)c4C)c(OC)c3)c2cc1OC" : 96 min
